# target-entity: Kappa-type opioid receptor (Homo sapiens, UniProt P41145)
# Sequence (P41145 whole entry): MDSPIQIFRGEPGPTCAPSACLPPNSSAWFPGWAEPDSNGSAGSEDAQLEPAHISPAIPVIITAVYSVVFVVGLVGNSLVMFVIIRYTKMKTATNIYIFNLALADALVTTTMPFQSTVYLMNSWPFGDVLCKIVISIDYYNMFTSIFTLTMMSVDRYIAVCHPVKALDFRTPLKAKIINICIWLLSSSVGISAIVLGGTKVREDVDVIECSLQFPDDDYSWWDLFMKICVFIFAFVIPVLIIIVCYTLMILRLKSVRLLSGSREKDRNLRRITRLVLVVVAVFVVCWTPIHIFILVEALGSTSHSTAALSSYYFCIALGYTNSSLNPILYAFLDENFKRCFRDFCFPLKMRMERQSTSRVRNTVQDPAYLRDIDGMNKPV
pKi: −log10 of the molar value.
measure-name: pKi

                                   compound  quantitative_result
0  NC(=O)[C@H]1CSSC[C@@H](NC(=O)[C@@H](N)Cc2ccc(O)cc2)C(=O)N[C@@H](Cc2ccccc2)C(=O)N1                 7.41
1  COc1ccc([C@H]2CN3C(=NC[C@@H]3C)N2CCCc2ccccc2)cc1                 7.41
2  CCC12CCN(CC3(O)CC3)C(Cc3ccc(O)cc31)C2(C)C (stereo not drawn)                10.40
3  CN1c2ccccc2C(c2ccccc2F)=NCC1CNC(=O)c1ccsc1 (stereo not drawn)                 9.77
4  O=C(Nc1ccccc1)[C@H]1O[C@@]23CCC1(O)[C@@H]1Oc4c(O)ccc5c4[C@@]12CCN(CC1CC1)[C@@H]3C5 (single isomer, unassigned)                 9.95
5  COC(=O)[C@]12CN(C)C[C@](C(=O)OC)(C1=O)[C@@H](c1ccccn1)N(C)[C@H]2c1ccccn1                 7.82
6  O=C(Nc1ccccc1)[C@@H]1O[C@@]23CC[C@@]1(O)[C@@H]1Oc4c(O)ccc5c4[C@@]12CCN(CC1CC1)[C@@H]3C5                 9.82
7  O=C(NC[C@H]1C[C@]23CCN(CC4CC4)[C@H](Cc4ccc(O)cc42)[C@]3(O)CO1)c1ccccc1                 9.87

* * *

# test-method-notes: Selectivity ratio of Ki for mu opioid receptor to kappa opioid receptor
measure-name: Ratio Ki

>>> df
                                   compound  measure_name  modifier  quantitative_result
0  O=C(Nc1ccccc1)[C@H]1O[C@@]23CCC1(O)[C@@H]1Oc4c(O)ccc5c4[C@@]12CCN(CC1CC1)[C@@H]3C5 (single isomer, unassigned)      Ratio Ki         =                  1.9
1  CN(C(=O)/C=C/c1ccco1)[C@@H]1CC[C@@]2(O)[C@H]3Cc4ccc(O)c5c4[C@@]2(CCN3CC2CC2)[C@H]1O5      Ratio Ki         =                  2.6
2  NC(=O)[C@H]1CSSC[C@@H](NC(=O)[C@@H](N)Cc2ccc(O)cc2)C(=O)N[C@@H](Cc2ccccc2)C(=O)N1      Ratio Ki         =                 0.03
3  CN1c2ccccc2C(c2ccccc2F)=NCC1CNC(=O)c1ccsc1 (stereo not drawn)      Ratio Ki         =                  8.8
4  O=C(Nc1ccccc1)[C@@H]1O[C@@]23CC[C@@]1(O)[C@@H]1Oc4c(O)ccc5c4[C@@]12CCN(CC1CC1)[C@@H]3C5      Ratio Ki         =                  1.3
5  CCC12CCN(CC3(O)CC3)C(Cc3ccc(O)cc31)C2(C)C (stereo not drawn)      Ratio Ki         =                  3.8
6  O=C(NC[C@H]1C[C@]23CCN(CC4CC4)[C@H](Cc4ccc(O)cc42)[C@]3(O)CO1)c1ccccc1      Ratio Ki         =                    1
7  COC(=O)[C@]12CN(C)C[C@](C(=O)OC)(C1=O)[C@@H](c1ccccn1)N(C)[C@H]2c1ccccn1      Ratio Ki         >                 66.7
